I'd be grateful if you could share measured IC50 for these entries.
Unit nM implied. Number only.

What IC50 appears in the records for this compound with UniProtKB P00797? CC(C)C[C@H](NC(=O)C[C@@H](O)C(CC1CCCCC1)NC(=O)[C@H](Cc1cnc[nH]1)NC[C@H](Cc1ccccc1)NC(=O)OC(C)(C)C)C(=O)NCc1ccccc1 (some centres not stated)
Sequence (P00797 whole entry): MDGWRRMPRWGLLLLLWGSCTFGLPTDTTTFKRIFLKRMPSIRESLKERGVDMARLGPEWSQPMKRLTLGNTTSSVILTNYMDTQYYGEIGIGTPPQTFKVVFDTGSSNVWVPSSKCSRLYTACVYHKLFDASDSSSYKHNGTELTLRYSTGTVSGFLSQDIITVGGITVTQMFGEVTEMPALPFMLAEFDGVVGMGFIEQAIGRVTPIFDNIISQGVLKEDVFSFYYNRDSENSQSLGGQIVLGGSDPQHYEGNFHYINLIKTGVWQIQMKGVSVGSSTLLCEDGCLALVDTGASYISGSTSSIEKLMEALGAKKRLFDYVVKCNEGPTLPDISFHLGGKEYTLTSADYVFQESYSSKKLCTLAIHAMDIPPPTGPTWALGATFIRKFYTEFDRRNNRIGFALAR
200

What IC50 appears in the records for this compound with UniProtKB P00797? CC(C)C[C@H](NC(=O)C[C@@H](O)C(CC1CCCCC1)NC(=O)C/C=C/[C@H](Cc1ccccc1)NC(=O)OC(C)(C)C)C(=O)NCc1ccccc1 (some centres not stated)
1300

What IC50 appears in the records for this compound with UniProtKB P00797? CC(C)C[C@H](NC(=O)C[C@@H](O)C(CC1CCCCC1)NC(=O)CC1OC1[C@H](Cc1ccccc1)NC(=O)OC(C)(C)C)C(=O)NCc1ccccc1 (some centres not stated)
530

What IC50 appears in the records for this compound with UniProtKB P00797? CC(C)C[C@H](NC(=O)CC(O)[C@H](CC(C)C)NC(=O)C(O)C(O)C(O)[C@H](Cc1ccccc1)NC(=O)OC(C)(C)C)C(=O)NCc1ccccc1 (some centres not stated)
11000

What IC50 appears in the records for this compound with UniProtKB P00797? CC(C)C[C@H](NC(=O)C[C@@H](O)C(CC1CCCCC1)NC(=O)CCC(O)[C@H](Cc1ccccc1)NC(=O)OC(C)(C)C)C(=O)NCc1ccccc1 (some centres not stated)
61

What IC50 appears in the records for this compound with UniProtKB P00797? CC(C)CC(=O)N[C@H](CN[C@H](C(=O)N[C@@H](CC(C)C)C(O)CC(=O)N[C@@H](CC(C)C)C(=O)NCc1ccccc1)C(C)C)C(C)C (some centres not stated)
15000

What IC50 appears in the records for this compound with UniProtKB P00797? CC(C)C[C@H](NC(=O)CC(O)[C@H](CC(C)C)NC(=O)[C@H](Cc1ccccc1)N(O)C[C@H](Cc1ccccc1)NC(=O)OC(C)(C)C)C(=O)NCc1ccccc1 (some centres not stated)
18000

What IC50 appears in the records for this compound with UniProtKB P00797? CC(C)CC(=O)N[C@@H](Cc1ccccc1)CS(=O)(=O)[C@@H](Cc1ccccc1)C(=O)N[C@@H](CC(C)C)C(O)CC(=O)N[C@@H](C)C(=O)N[C@@H](CC(C)C)C(O)CC(=O)NCc1ccccc1 (some centres not stated)
1500

What IC50 appears in the records for this compound with UniProtKB P00797? CC(C)C[C@H](NC(=O)C[C@@H](O)C(CC1CCCCC1)NC(=O)CCC[C@H](Cc1ccccc1)NC(=O)OC(C)(C)C)C(=O)NCc1cccc(CN)c1 (some centres not stated)
630

What IC50 appears in the records for this compound with UniProtKB P00797? CC(C)C[C@H](NC(=O)CC(O)[C@H](CC(C)C)NC(=O)[C@H](Cc1ccccc1)[S+]([O-])C[C@H](Cc1ccccc1)NC(=O)OC(C)(C)C)C(=O)NCc1ccccc1 (some centres not stated)
5400

What IC50 appears in the records for this compound with UniProtKB P00797? CC(C)C[C@H](CC(O)[C@H](CC(C)C)NC(=O)OCc1ccccc1)C(=O)N[C@@H](CC(C)C)C(O)CC(=O)N[C@@H](CC(C)C)C(=O)NCc1ccccc1 (some centres not stated)
6700
